Assayed system: cloned human 5-HT2C receptor (Homo sapiens)
Construct: purchased Euroscreen; host or cells: CHO-K1 cells
Sequence (P28335 33-458): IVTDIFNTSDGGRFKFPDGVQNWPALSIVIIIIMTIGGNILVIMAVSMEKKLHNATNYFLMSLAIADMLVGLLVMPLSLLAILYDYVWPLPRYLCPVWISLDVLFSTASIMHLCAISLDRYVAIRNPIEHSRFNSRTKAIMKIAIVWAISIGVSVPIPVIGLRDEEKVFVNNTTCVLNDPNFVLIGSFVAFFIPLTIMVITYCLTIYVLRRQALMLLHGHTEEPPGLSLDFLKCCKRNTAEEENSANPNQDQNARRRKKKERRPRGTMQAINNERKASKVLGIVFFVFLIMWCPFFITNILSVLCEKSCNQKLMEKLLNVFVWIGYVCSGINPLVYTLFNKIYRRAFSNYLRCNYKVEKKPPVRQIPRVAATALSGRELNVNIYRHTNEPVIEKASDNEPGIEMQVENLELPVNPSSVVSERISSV
Method: Human 5-HT2C receptor binding assay ([3H]mesulergine, CHO-K1 membranes)
Condition description: displacement of [3H]mesulergine (1 nM), read-out: 5-HT2C pKi (converted)
Quantity kind: Ki

Worked examples follow.
Compound | Val
Nc1nc(CO)c(-c2cccc3ccccc23)o1 | > 1000 nM
CN(C)c1nc(-c2cccc3ccccc23)co1 | > 10000 nM
CC(C)c1nc(N)oc1-c1cccc2ccccc12 | > 1000 nM

Query block: Note down Ki recorded for COc1ccc2ccccc2c1-c1coc(N)n1
Result block: > 100 nM

Query block: Indicate its recorded Ki; the compound in question is CC(C)c1nc(N)oc1-c1ccc(F)c2ccccc12
Result block: > 1000 nM

Query block: Let me know recorded Ki for Nc1nc(-c2ccc3c(c2)OCCO3)co1 , thanks.
Result block: > 10000 nM

Query block: Identify measured Ki associated with COC(=O)COc1ccc2ccccc2c1-c1coc(N)n1
Result block: > 10000 nM

Query block: Give me measured Ki, please, for this compound: Nc1nc(-c2cccc3c(Br)cccc23)co1
Result block: > 1000 nM
